Reference source: the DeepSol protein solubility set

experiment: soluble on expression in E. coli; label from the status in PepcDB or PDB records

Chain	soluble on expression in E. coli
MSLKAAVYEGKKAIKMTELPTPKAGPNDVVIQNIYAGICGSDVAVYNHGSGTGHKIETDHEFGHEAVSKVVEVGDDVHDFKIGDRVYPYPLLARGDPSRAGSMGGFSEYILIPNAKLNRQLYLVPKEIDNHVAAMIEPFTVGTRAAKQTRPDKNDNAIVYGTGTIGMAAAVALKHLGVKQVMLVDLSDYRLNVAKELGFLTVNSSRDDVRSQAIEAFGKAEYSLHGEAPDTQIFLDAAGHNSILEDFLQFGPVGSRFVTVGVNNSKPQIDFLELIFGSKSVGGSGGYRPEDVQTVFEIMKERQSDLRKMVSQEFDWQDLEKGIQTATDTTISEKVLINYHEGHHHHHH	soluble
MLKELSILTGGDGVGFQSAPEQQSLQPAELKPVNVSINSIDELMLFFESLNYTPENFHGGNKSVPRITFDAVGEGWRSVSDQLPVKQKKMVFFRLMTPLVLLANEKVLQERQQVMSAPLDDAELIALAVKYKVISNPTQPLLASHRQALLERVDILPPSLVLAQAAKESGWGTSRFTLEGNALFGQWDFNGNGMEPKQKRQGMGRYGLARFETPLASVEGYLLNLNTHSAYYKMRQLRAQSRHANQMITGTALAGTLDRYSERGHAYVEMIRKMIRTNKLYLADEAYLNDDMPLHLLTRTN	soluble
MGSDKIHHHHHHAATVKLTIIKSDLDMKASGGTGTVEFAATGTVTATVNADWCQVIEVADHKVSISVDANTGYPGRSAQIVLTDGVSTQQATILQEGAIWKYNRDATYFTLTDAAEEVPVEMSSNLPIQVSIPADASQWLSYEMTSDGFKFIAKENLTGKIRSAIVKVTTGIREIEYALLQYDIDDLLGQWTGVVKVVATAFGINQVLSLEENTQIVKNPGGNGYIFQLPMTRLLGATIVLAVTYQDGALVITTPQQQNYALSDGQGGVMYGSIITKTDDGLYLQGKIILSPVLMNDGQVALAYITDAYMSMGLFKGRVPSTANYAGLSIDFPAILMQYAE	not soluble
MRMNIRVALPQAQVHWCRGWLQAAHADALMQALLDQVQWEVHRIRMFGRVVDSPRLSSWIGDADASYRYSGTQFAPQPWLEALQPVRTRLQDETGSPFNSVLVNRYRSGADAMGWHSDDEPELGAQPVIASLSLGAARRFAFKHRHDAALKQTLELGHGDLLLMGGDTQRHYKHALPRTVKPVGERINLTFRQIAVRVSQRLEHHHHHH	not soluble
AHHHHHHGSEELIREVILKNLTLNSAGGIGLEELDDGATIPLGDKHLVFTIDGHTVKPIFFPGGDIGRLAVSGTVNDLAVMGAQPLAIASSLIIEEGFEVSELEKILKSMDETAKEVPVPIVTGDTKVVEDRIGIFVITAGVGVAERPISDAGAKVGDVVLVSGTIGDHGIALMSHREGISFETELKSDVAPIWDVVKAVADAIGWENIHAMKDPTRGGLSNALNEMARKANVGILVREEAIPIRPEVKAASEMLGISPYEVANEGKVVMIVAKEYAEEALEAMKKTEKGRDAAIIGEVIGEYRGKVILETGIGGRRFLEPPLGDPVPRVC	soluble
MEIKEVLPCIADPKKLRVIGRVDGNFPAVMPYLARLIPNASYNEKRGWISFKKGQRIITIHEDGFVAMTQIKDEDEAKSILGEIEQKAQEAWEKRNKIDLSKPLEKTVVSPFDVYNYLPKTNCKRCGEQTCMAFAVKLLNGEVDIKACKPLFEDKKYEGLRETLIGMLVAAGYDLEL	soluble
MGSDKIHHHHHHMEVLSGECRSASSVASAGGGHAESWARYASMDRKGESSMAAQQPTILATSGGYKAGRRSRLEFDALLHHAVELSGVTGRAPRVTHIGTAAGDQRSFNAELDQAAKIAGFDFSHLNLFTMPSIDDPEAHLLEQDVVWVNGGSVVNLLAVWRAHGLDGILRRVWEAGVVLAGVSAGSICWFQGGTTDSYGPQLRPVTNALGFLPYANGVHYDSEVQRRPLVHRLVADGTLGETHCTDDGAGLVYFGTHLAEAVTEVRGKAAYRVTRHIQGGGAATAAEERLEARFLG	not soluble
MAFGLPDTAALNKAADQKTSVSMPVRGRLVMNDSGILDVQLVKTNTAGAVKVARAVLDKETGYWGYTLPAVADVPAQTIFVSPADALGANGPLTLSGPVPLPERILHTGDQISAPQATDKTVTPVADDLDFDDIILVFPPESGLKPLYVMYRSPRNMPGTVSGKGLEHHHHHH	soluble
MRNHYMSMYDMRQFFKTYFSSASEKSILVKLLDKRFHPPSHTANILDLGCHDGALMKNIVNAYAKRLPEKLVITGVDPSLQAIKEYAKADFPIPVQTNTFAGTAEDYFDVCTDHFDWIFASQCLYWSPDLPKIIKQIHETGDSALIVIRGCHGIYEIQSQFRHYIGNHLEKFYTDKEVEMALRTQKILFQKESLSTSIRLPDKDSIELKWLILFFLQMEEESLGDKIFCEVRDWITSRTSGSIHHEVHFFWLGNAILQGITI	not soluble
MPHKNTKSNVQKITASVASVIVSTGIVMNSSNRRVKATGKREDEIVEVESLKRADTETTKAAAVQTPKINQTKKMSHRTQKVTQMIHYVDEDERPVYDDYTASLIFEQTGILDNVTGKQTWNSNWLPKTTATFSAVEHPVVRNHHLVNPEINEVSAYDVEVTDDTFKNPLLKVHKVVYAHDIEPIKRTQVVTQTIHYRYEDGAVAHDDHVVSLIFTQSGKRDLTNGKEIWDSKWSLTQTFEALPSPVIIGYTADKPMVGPDEVTVDSKNFLDKQNREETVIYSANTITQNKKDGISEEKNVNNSVAVAPLKSAVMIGGVISILKFKRLMVIIKNKKDHKLEHHHHHH	soluble
